Tested on: human monoclonal antibody CRJA
Assay type: binding
# thresholds on Binding of CRJA to linear peptide (PEPSCAN-ELISA signal) define classes: lower: < 80; middle: ≥ 80 and < 90; upper: ≥ 90

> print(dat)
     residue.codes  class.label
1  GNVLIPEMQSSLLQQ       middle
2  AGDPRYEESLHNPYP       middle
3  GVAVSSTYCSTNHDY       middle
4  YDRSLHSRVFPSGKC        upper
5  EHLVVEELVRKREEC        lower
6  KHFRPTPDACRAAYN       middle
7  MQTSNETKWCPPDQL        upper
8  DGNVLIPEMQSSLLQ        upper

// query Which of the defined bands does the recorded Binding of CRJA to linear peptide (PEPSCAN-ELISA signal) of LRKLVPGFGKAYTIF sit within?
// result upper

// query Band for RLSHLRKLVPGFGKA ?
// result upper
